system: C. elegans; assay: microbe, parasite or virus in culture; conditions: Caenorhabditis elegans, 24 h, read-out: Percentage of motility inhibition 24 h, Table S2, C. elegans SS assay, 110 μM, 24 h, averages of 4 data points
Consider the following compounds and their measured inhibition at 110 µM readings.
property_name: inhibition at 110 µM (%)

>>> quantitative_result("OCC1=C[C@@H](O)[C@@H]2C=CO[C@@H](O[C@@H]3O[C@H](CO)[C@@H](O)[C@H](O)[C@H]3O)[C@H]12")
19
>>> quantitative_result("Cc1cc2cc3c(C)cc(=O)oc3c(C)c2o1")
7
>>> quantitative_result("CCC12C=CCN3CC[C@@]4(c5ccc(OC)cc5N(C)[C@H]4[C@@](O)(C(=O)OC)[C@@H]1OC(C)=O)[C@@H]32 (stereo partly drawn)")
0
>>> quantitative_result("O=C1CCC[C@@H]2[C@H]3CCCN4CCC[C@@H](CN12)[C@@H]34")
2
>>> quantitative_result("C[C@@H]1O[C@@H](O[C@H]2[C@H](O[C@H]3CO[C@@H](O[C@H]4CC[C@]5(C)[C@H]6CC[C@]78OC[C@@]9(CC[C@](C)(C=O)C[C@H]97)[C@H](O)C[C@@]8(C)[C@]6(C)CC[C@H]5C4(C)C)[C@H](O[C@@H]4O[C@H](CO)[C@@H](O)[C@H](O)[C@H]4O)[C@H]3O)O[C@H](CO)[C@@H](O)[C@@H]2O)[C@H](O)[C@H](O)[C@H]1O")
0
>>> quantitative_result("O=C1CCC[C@@H]2[C@H]3CCC[N+]4([O-])CCC[C@@H](CN12)[C@@H]34 (stereo partly drawn)")
11
